tested on: HT29; assay: MTT cell viability, HT29; type: cell-based, human; details: Homo sapiens, HT-29, 48 hours, Mean ± SD, read-out: Growth Inhibition IC50 HT-29
MEASURE: pIC50
Answers are plain numbers, as −log10 of the molar value.

Solved cases below.
- COMPOUND: "CC(C)=CCCC(C)=CCCC(C)=CCN1C(=O)C2C3CCC(O3)C2C1=O (stereo not shown)"
  pIC50: 4.83
- COMPOUND: "CC(C)=CCCC(C)=CCCC(C)=CCON1C(=O)C2C3CCC(O3)C2C1=O (stereo not shown)"
  pIC50: 5.01
- COMPOUND: "O=C1OC(=O)C2C3CCC(O3)C12 (stereo not shown) [Compound 2, reference compound]"
  pIC50: 4.71

// switching to the query compound
So, COc1cccc2c1C(=O)c1c(O)c3c(c(O)c1C2=O)C[C@@](O)(C(=O)CO)C[C@@H]3O[C@H]1C[C@H](N)[C@H](O)[C@H](C)O1 ? Its pIC50 was 5.77

This collection of values is drawn from patent US9359373B1.
